# Test system: Candida parapsilosis DSM 5784
# run description: Antifungal activity in vitro, serial dilution in RPMI 1640
# Type: cell-based
# setup conditions: Table 2B
# Text: For the determination of antifungal activity in vitro we used method of serial dilution in buffered medium RPMI 1640, pH 7.0, in a 96-wells microplates, according to the standard procedure (National Committee for Clinical Laboratory Standards. Reference method for broth dilution antifungal susceptibility testing of yeast, approved standard, 2nd ed. M27-A2 vol. 22 Wayne, Pa., 2002). […]
In this section, each of the molecules is paired with its reported MIC Candida parapsilosis DSM 5784.
property: MIC Candida parapsilosis DSM 5784 (µg/mL)

molecule	quantitative readout
CCCN(CCC)[C@@H]1[C@H](O)[C@H](O[C@H]2/C=C/C=C/C=C/C=C/CC/C=C/C=C/[C@H](C)[C@@H](O)[C@@H](C)[C@H](C)OC(=O)C[C@H](O)C[C@H](O)C[C@H](O)CC[C@@H](O)[C@H](O)C[C@]3(O)C[C@H](O)[C@@H](C(=O)O)[C@H](C2)O3)O[C@H](C)[C@H]1O	8
C[C@@H]1[C@H](O)[C@@H](C)/C=C/C=C/CC/C=C/C=C/C=C/C=C/[C@H](O[C@@H]2O[C@H](C)[C@@H](O)[C@H](NC(=O)[C@H](N)c3ccccc3)[C@@H]2O)C[C@@H]2O[C@](O)(C[C@@H](O)C[C@@H](O)[C@H](O)CC[C@@H](O)C[C@@H](O)CC(=O)O[C@H]1C)C[C@H](O)[C@H]2C(=O)O	32
CC1OC(O[C@H]2/C=C/C=C/C=C/C=C/CC/C=C/C=C/[C@H](C)[C@@H](O)[C@@H](C)[C@H](C)OC(=O)C[C@H](O)C[C@H](O)C[C@H](O)CC[C@@H](O)[C@H](O)CC3(O)C[C@H](O)[C@@H](C(=O)O)[C@H](C2)O3)C(O)C(NC(=O)[C@H](N)CCC(=O)OC(C)(C)C)C1O (stereo partly shown)	16
CC1OC(O[C@H]2/C=C/C=C/C=C/C=C/CC/C=C/C=C/[C@H](C)[C@@H](O)[C@@H](C)[C@H](C)OC(=O)C[C@H](O)C[C@H](O)C[C@H](O)CC[C@@H](O)[C@H](O)CC3(O)C[C@H](O)[C@@H](C(=O)O)[C@H](C2)O3)C(O)C(NC(=O)[C@H](N)CC(=O)OC(C)(C)C)C1O (stereo partly shown)	8
CC1OC(O[C@H]2/C=C/C=C/C=C/C=C/CC/C=C/C=C/[C@H](C)[C@@H](O)[C@@H](C)[C@H](C)OC(=O)C[C@H](O)C[C@H](O)C[C@H](O)CC[C@@H](O)[C@H](O)CC3(O)C[C@H](O)[C@@H](C(=O)O)[C@H](C2)O3)C(O)C(NC(=S)NCC(C)(C)CN(C)C)C1O (stereo partly shown)	4
CCN(CC)[C@@H](Cc1ccccc1)C(=O)NC1C(O)C(C)OC(O[C@H]2/C=C/C=C/C=C/C=C/CC/C=C/C=C/[C@H](C)[C@@H](O)[C@@H](C)[C@H](C)OC(=O)C[C@H](O)C[C@H](O)C[C@H](O)CC[C@@H](O)[C@H](O)CC3(O)C[C@H](O)[C@@H](C(=O)O)[C@H](C2)O3)C1O (stereo partly shown)	32
C[C@@H]1[C@H](O)[C@@H](C)/C=C/C=C/CC/C=C/C=C/C=C/C=C/C(O[C@H]2O[C@H](C)[C@@H](O)[C@H](N)[C@@H]2O)CC2O[C@](O)(CC(O)C(O)CCC(O)CC(O)CC(O)CC(=O)O[C@H]1C)CC(O)C2C(=O)O (stereo partly shown)	1
